src = patent US7815900B1

# method_description: Dry tensile strength (Instron) after heat cycles
# assay_context: bleached hair after 12 heat cycles, 0.06 M solutions, n = 100 fibers
Listed here: items and their measured Work 25% (Dry).

# get_value(readout='Work 25% (Dry)', item= O=C[C@@H](O)[C@@H](O)[C@H](O)[C@H](O)CO )
914.9 +/− 122.0 J/m^2

Record request: Work 25% (Dry) value, item O=C(CO)[C@@H](O)[C@H](O)[C@H](O)CO
885.0 +/− 161.0 J/m^2

Query: Work 25% (Dry); subject: O=C[C@H](O)[C@@H](O)[C@@H](O)[C@H](O)CO
945.8 +/− 168.9 J/m^2

Endpoint output: Work 25% (Dry) of O=C[C@H](O)[C@@H](O)[C@H](O)[C@H](O)CO [D-Glucose, reference compound] . Value?
913.9 +/− 158.2 J/m^2

Consider the compound shown here: C[C@H](O)[C@@H](O)[C@@H](O)[C@H](O)C=O What is its recorded Work 25% (Dry)?
838.2 +/− 134.5 J/m^2

Which value of Work 25% (Dry) has been reported for O=C[C@H](O)[C@@H](O)[C@H](O)CO in the records?
1,204 +/− 215 J/m^2

Consider the compound shown here: O=CC[C@H](O)[C@H](O)CO What is its recorded Work 25% (Dry)?
1,032 +/− 163 J/m^2

---

# method_description: Dry tensile strength (Instron) after heat cycles
# assay_context: bleached hair, 5 heat cycles at 130° C., 0.06 M solutions, n = 50 fibers
Measured Work 25% (Dry), listed per entry for reference.

Worked examples follow.
O=C[C@H](O)[C@@H](O)[C@H](O)CO [D-Xylose] = 1,051 +/− 191 J/m^2
O=C[C@H](O)[C@H](O)[C@H](O)CO [D-Ribose] = 1,064 +/− 171.1 J/m^2
O=C[C@H](O)[C@@H](O)[C@H](O)[C@H](O)CO [D-Glucose, reference compound] = 864.7 +/− 184.4 J/m^2

# evaluate next
Report Work 25% (Dry) for O=C[C@@H](O)[C@@H](O)[C@H](O)CO [D-Lyxose] please.
819.9 +/− 162.7 J/m^2

---

Recorded Work-Break, one value per entry.
# method_description: Dry tensile strength (Instron) after heat cycles
# assay_context: dry bleached hair, 12 heat cycles, 0.06 M, INSTRON, n = 50 fibers

Use these answered entries as a reference point.
O=C[C@H](O)[C@@H](O)[C@@H](O)[C@H](O)CO = 2,696 +/− 533 J/m^2
O=C(CO)[C@@H](O)[C@H](O)[C@H](O)CO = 2,644 +/− 644 J/m^2
C[C@H](O)[C@@H](O)[C@@H](O)[C@H](O)C=O = 2,346 +/− 543 J/m^2
O=C[C@H](O)[C@@H](O)[C@H](O)[C@H](O)CO [D-Glucose, reference compound] = 2,599 +/− 604 J/m^2
O=C[C@H](O)[C@@H](O)[C@H](O)CO = 3,161 +/− 771 J/m^2
O=C[C@@H](O)[C@@H](O)[C@H](O)[C@H](O)CO = 2,595 +/− 433 J/m^2

Query (molecule): O=CC[C@H](O)[C@H](O)CO ; field requested: Work-Break
2,872 +/− 709 J/m^2
